Target System: ALDH2 (Homo sapiens, UniProt P05091, E504K)
Sequence (P05091 18-517 E504K): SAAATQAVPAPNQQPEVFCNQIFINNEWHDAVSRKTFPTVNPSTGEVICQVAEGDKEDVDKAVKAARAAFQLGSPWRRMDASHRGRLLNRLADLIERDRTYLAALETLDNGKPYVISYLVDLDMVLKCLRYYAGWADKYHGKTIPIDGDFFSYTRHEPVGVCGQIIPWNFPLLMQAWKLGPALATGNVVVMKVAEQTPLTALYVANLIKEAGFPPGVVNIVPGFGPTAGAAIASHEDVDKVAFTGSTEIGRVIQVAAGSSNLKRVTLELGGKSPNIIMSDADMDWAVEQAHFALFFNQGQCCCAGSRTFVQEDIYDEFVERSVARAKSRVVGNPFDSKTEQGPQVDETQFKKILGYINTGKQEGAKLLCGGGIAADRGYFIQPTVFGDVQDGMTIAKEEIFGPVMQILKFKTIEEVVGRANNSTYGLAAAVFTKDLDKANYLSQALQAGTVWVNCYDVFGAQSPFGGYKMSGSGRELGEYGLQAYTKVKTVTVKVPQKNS
Protocol Description: Screening for ALDH2 agonists (NAD+ to NADH, optionally diaphorase/resazurin-coupled)
Study Conditions: increase of ALDH2 activity; 10 mM acetaldehyde as substrate
Rule: measured EC50 below 8 µM gets Y; anything equal to or greater than 8 µM gets N.

Compound: COc1ccccc1CNc1nccn(-c2ccc3c(c2)OCCO3)c1=O [Alda-63]
Target System: ALDH2 (Homo sapiens, UniProt P05091, E504K)
Group Label: N

Compound: CCOC(=O)c1cc(-c2ccc(C)cc2)n(CCC(=O)N2CCN(c3ccccn3)CC2)c1C [Alda-56]
Target System: ALDH2 (Homo sapiens, UniProt P05091, E504K)
Group Label: Y

Compound: COc1c(C(=O)NCc2ccc3c(c2)OCO3)ccc2ccccc12 [Alda-52]
Target System: ALDH2 (Homo sapiens, UniProt P05091, E504K)
Group Label: Y

Compound: Cc1cc(C)cc(NC(=O)CSC2=Nc3ccccc3C3=NC(C(C)C)C(=O)N23)c1 (stereo not drawn) [Alda-65]
Target System: ALDH2 (Homo sapiens, UniProt P05091, E504K)
Group Label: N

Compound: Cc1ccc(CNC(=O)Cn2c3ccccc3c3cn[nH]c(=O)c32)cc1 [Alda-71]
Target System: ALDH2 (Homo sapiens, UniProt P05091, E504K)
Group Label: N

Compound: Cc1ccc(N2CC(c3nc(-c4cccnc4)no3)CC2=O)cc1Cl (stereo not drawn) [Alda-69]
Target System: ALDH2 (Homo sapiens, UniProt P05091, E504K)
Group Label: N

Compound: Cc1ccc(-n2ncc3c(N(CCO)Cc4ccccc4)ncnc32)cc1Cl [Alda-67]
Target System: ALDH2 (Homo sapiens, UniProt P05091, E504K)
Group Label: Y

Compound: COc1cccc(CNc2nccn(-c3ccc(C)c(C)c3)c2=O)c1 [Alda-62]
Target System: ALDH2 (Homo sapiens, UniProt P05091, E504K)
Group Label: N

Compound: Cc1ccc(CNS(=O)(=O)c2cc(-c3onc(C)c3C)ccc2C)cc1 [Alda-61]
Target System: ALDH2 (Homo sapiens, UniProt P05091, E504K)
Group Label: Y
